Target: acetylcholine receptor
Test: SPR, AchR immobilised on CM5 chip, peptide at 10 uM
Binding affinity (RU) values, listed per item

binder	Binding affinity (RU)
RYHWR [5mer-896]	27
RCHAK [5mer-860]	31
RKGQLK [6mer-1-1458]	139
RFTKK [5mer-895]	18

Taken from patent US20250011363A1.
